A collection of molecules and their measured composite z-score
- System: Wnt5a (protein binding on small-molecule microarray)
- run-description: Wnt5a binders on small-molecule microarray, primary screen, biophysical, 635/667 nm fluorescence (AID 1142);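 further: fluorescence read at 667 nm with signal to noise per printed feature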
- test-settings: 635 nm fluorescence, higher = more signal
readout-type: composite z-score

molecule	readout-type	recorded-measurement
CCOC(=O)C[C@H]1[C@H](OC(=O)c2cc3ccccc3oc2=O)[C@@H](NC(=O)Cc2ccc(OC)cc2)c2cc(OCCCO)ccc2N1C(=O)c1ccc2ccccc2n1	composite z-score	0.34
COc1cc(OC)c(C(O)C2C=CC3C(=O)N(c4ccccc4)C(=O)C3N2Nc2ccccc2)cc1Br (centres undefined)	composite z-score	-0.0276
C=C(/C(=C/C[C@H](OC(C)=O)c1ccccc1OCCO)c1cc(C(=O)OC)ccc1OC)C(C)C	composite z-score	0.608
COCCCNC(=O)[C@]1(CCS(=O)(=O)c2ccccc2)N=C(c2ccc(OCCCO)cc2)O[C@@H]1c1ccccc1CN=[N+]=[N-]	composite z-score	1.31
